# target under test: Flag/GST-tagged recombinant human B-Raf (Homo sapiens, UniProt P15056)
# Construct: Flag; GST; made in house; host or cells: Sf9 insect cells (B-Raf); E. coli (MEK1-GST)
# Sequence (P15056 whole entry): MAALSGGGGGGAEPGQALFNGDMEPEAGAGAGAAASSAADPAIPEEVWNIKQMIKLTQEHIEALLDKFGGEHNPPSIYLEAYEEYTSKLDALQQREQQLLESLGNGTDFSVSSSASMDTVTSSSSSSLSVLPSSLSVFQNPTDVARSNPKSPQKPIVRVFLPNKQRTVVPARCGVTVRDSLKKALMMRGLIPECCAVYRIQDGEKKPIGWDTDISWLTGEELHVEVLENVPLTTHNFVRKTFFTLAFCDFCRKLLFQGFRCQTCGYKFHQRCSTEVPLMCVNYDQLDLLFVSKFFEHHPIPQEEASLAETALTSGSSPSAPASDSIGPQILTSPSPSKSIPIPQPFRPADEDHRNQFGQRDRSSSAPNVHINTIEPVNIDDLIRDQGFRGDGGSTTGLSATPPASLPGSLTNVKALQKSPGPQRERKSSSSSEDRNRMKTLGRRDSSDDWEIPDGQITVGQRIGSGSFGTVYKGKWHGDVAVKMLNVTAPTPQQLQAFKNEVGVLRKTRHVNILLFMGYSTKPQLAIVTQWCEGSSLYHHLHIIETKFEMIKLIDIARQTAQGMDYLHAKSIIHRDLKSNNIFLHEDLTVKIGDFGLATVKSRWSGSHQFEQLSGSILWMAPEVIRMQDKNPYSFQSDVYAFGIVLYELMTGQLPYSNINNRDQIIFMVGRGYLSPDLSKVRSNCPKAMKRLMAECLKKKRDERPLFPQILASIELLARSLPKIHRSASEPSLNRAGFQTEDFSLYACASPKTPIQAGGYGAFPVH
# protocol: B-Raf kinase assay (phosphorylation of GST-MEK1, phospho-MEK1 antibody/Europium detection)
# Assay type: biochemical
# condition info: B-Raf IC50 Data for compounds of Formula A; read-out: Mean IC50
Structures can show the parent of a compound that is named as a salt.
value type: IC50 (µM)

// solved cases for IC50 follow
{"compound": "CC(C)(C)OC(=O)N1C[C@@H]2C[C@H]1CN2Cc1ccc(-c2ccnc3c(-c4cccc5[nH]ncc45)c(-c4ccncc4)nn23)s1", "unit of measurement": "µM", "assay value": 0.0115}
{"compound": "CCN1C2CCC1CC(c1ccnc3c(-c4ccc(C)c5[nH]ncc45)c(-c4ccncc4)nn13)C2 (stereo not shown) [Example 77, trifluoroacetate salt]", "unit of measurement": "µM", "assay value": 0.017}

A: c1cc(-c2c(-c3ccncc3)nn3c(-c4ccc(CN5C[C@@H]6C[C@H]5CO6)cc4)ccnc23)c2cn[nH]c2c1
B: c1cc(-c2ccnc3c(-c4cccc5[nH]ncc45)c(-c4ccncc4)nn23)cc(N2C[C@@H]3C[C@H]2CN3)c1
C: O=C([C@@H]1CCCN1)N1C2CCC1CC(c1ccnc3c(-c4cccc5[nH]ncc45)c(-c4ccncc4)nn13)C2 (stereo partly shown)
Request: // sort entries: IC50, high to low Write the labels out in the order the request specifies.
Result: B, A, C
(B: 0.0376 µM, A: 0.01 µM, C: 0.0021 µM)

* * *

# target under test: Flag/GST-tagged recombinant human B-Raf (Homo sapiens)
# Construct: Flag; GST; made in house; host or cells: Sf9 insect cells (B-Raf); E. coli (MEK1-GST)
# protocol: B-Raf kinase assay (phosphorylation of GST-MEK1, phospho-MEK1 antibody/Europium detection)
# Format: biochemical
# condition info: B-Raf IC50 Data for compounds of Formula A; read-out: Mean IC50
pIC50: −log10 of the molar value.
value type: pIC50

{"compound": "CCOC(=O)N1C2CCC1CC(c1ccnc3c(-c4cccc5[nH]ncc45)c(-c4ccncc4)nn13)C2 (stereo not shown)", "target under test": "Flag/GST-tagged recombinant human B-Raf (Homo sapiens)", "pIC50": 8.70}

1: Fc1cc(-c2ccnc3c(-c4cccc5[nH]ncc45)c(-c4ccncc4)nn23)cc(F)c1N1C[C@@H]2C[C@H]1CN2
2: COc1cc(-c2c(-c3ccncc3)nn3c(-c4ccc(N5C[C@@H]6C[C@H]5CN6)cc4)ccnc23)ccc1F
Request: Looking at recorded values for pIC50, does 1 or 2 come in lower? Give the chosen item's label as your response.
Result: 2
(2: 8.06, 1: 8.57)

* * *

# target under test: Flag/GST-tagged recombinant human B-Raf (Homo sapiens)
# Construct: Flag; GST; made in house; host or cells: Sf9 insect cells (B-Raf); E. coli (MEK1-GST)
# protocol: B-Raf kinase assay (phosphorylation of GST-MEK1, phospho-MEK1 antibody/Europium detection)
# Type: biochemical
# condition info: B-Raf IC50 Data for compounds of Formula A; read-out: Mean IC50
pIC50: −log10 of the molar value. Structures can show the parent of a compound that is named as a salt.
Listing of entries alongside the reported pIC50.

// solved cases for pIC50 follow
{"molecule": "Fc1cc(N2C[C@@H]3C[C@H]2CN3)ccc1-c1ccnc2c(-c3cccc4[nH]ncc34)c(-c3ccncc3)nn12 [Example 93]", "value type": "pIC50", "assay value": "> 9.52"}
{"molecule": "Fc1ccc(-c2c(-c3ccncc3)nn3c(-c4ccc(N5C[C@@H]6C[C@H]5CN6)cc4Cl)ccnc23)c2cn[nH]c12", "value type": "pIC50", "assay value": "> 9.52"}
{"molecule": "Oc1cccc(-c2c(-c3ccncc3)nn3c(C4CC5CCC(C4)N5)ccnc23)c1 (stereo not shown)", "value type": "pIC50", "assay value": 8.40}
{"molecule": "CC(C)N1C2CCC1CC(c1ccnc3c(-c4cccc5[nH]ncc45)c(-c4ccncc4)nn13)C2 (stereo not shown)", "value type": "pIC50", "assay value": 7.17}

Request: Recorded pIC50 for Clc1cc(N2C[C@@H]3C[C@H]2CN3)ccc1-c1ccnc2c(-c3cccc4[nH]ncc34)c(-c3ccncc3)nn12 [Example 97, bis-hydrochloride salt] , please?
Result: > 9.52

Request: Recorded pIC50 for CN1C[C@@H]2C[C@H]1CN2c1ccc(-c2ccnc3c(-c4cccc5[nH]ncc45)c(-c4ccncc4)nn23)c(Br)c1 , please?
Result: > 9.52

Request: Recorded pIC50 for CN1C[C@@H]2C[C@H]1CN2c1cc(F)c(-c2ccnc3c(-c4ccc(F)c5[nH]ncc45)c(-c4ccncc4)nn23)c(F)c1 , please?
Result: > 10.00
